Items are presented alongside their recorded Emax.
target: human CB1 cannabinoid receptors (Homo sapiens, UniProt P21554); experiment: Gi agonist effect: cAMP functional assay in CHO cells expressing CB1; assay type: cell-based; conditions: CHO, read-out: Maximum Effect (%)
Sequence (P21554 whole entry): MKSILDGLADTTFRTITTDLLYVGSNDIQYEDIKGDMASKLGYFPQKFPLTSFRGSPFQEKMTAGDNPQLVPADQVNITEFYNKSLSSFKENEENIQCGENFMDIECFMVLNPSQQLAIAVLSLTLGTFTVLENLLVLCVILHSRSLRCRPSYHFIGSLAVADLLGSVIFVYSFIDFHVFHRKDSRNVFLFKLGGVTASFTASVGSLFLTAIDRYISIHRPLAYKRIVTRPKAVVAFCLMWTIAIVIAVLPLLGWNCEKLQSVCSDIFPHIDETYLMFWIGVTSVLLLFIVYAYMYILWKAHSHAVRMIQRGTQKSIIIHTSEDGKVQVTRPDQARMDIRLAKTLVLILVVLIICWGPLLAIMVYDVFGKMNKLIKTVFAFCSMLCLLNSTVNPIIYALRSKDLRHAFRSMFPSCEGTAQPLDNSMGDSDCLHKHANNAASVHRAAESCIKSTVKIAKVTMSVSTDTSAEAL
Reply numerically in %, unit not repeated.

CCCCCn1cc(C(=O)c2ccc(C)c3ccccc23)c2ccccc21 tested on human CB1 cannabinoid receptors (Homo sapiens, UniProt P21554) gave Emax: 102

Tested system human CB1 cannabinoid receptors (Homo sapiens, UniProt P21554); Emax recorded for O=C(c1cccc2ccccc12)c1nn(CCCCCF)c2ccccc12 was 96.6

The reported human CB1 cannabinoid receptors (Homo sapiens, UniProt P21554) Emax of CCCCCn1cc(C(=O)NC(C(N)=O)C(C)(C)C)c2ccccc21 (stereo not drawn) is 97.4

Item CCCCCn1nc(C(=O)NC(C(N)=O)C(C)(C)C)c2ccccc21 (stereo not drawn) was tested on human CB1 cannabinoid receptors (Homo sapiens, UniProt P21554); the reported Emax is 99.6

Simply: CCCCCn1cc(C(=O)c2ccc(CC)c3ccccc23)c2ccccc21 , human CB1 cannabinoid receptors (Homo sapiens, UniProt P21554), Emax = 98.2

In the following, a different molecule is considered.
Lab note: molecule CCCCCn1cc(C(=O)c2ccc(OC)cc2)c2ccccc21 tested on human CB1 cannabinoid receptors (Homo sapiens, UniProt P21554); recorded Emax was 101
